Where do these numbers come from? They come from ChEMBL document CHEMBL5523681.

Assay: Stability of compound in DMF under dark condition
Assay type: physicochemical
attribute.measured: Stability

Example entries begin here.
CCN(CC)Cc1ccc(C2=C(I)C(c3ccc(OC)cc3)=[N+]3C2=Nc2c(-c4ccccc4)c(I)c(-c4ccc(OC)cc4)n2[B-]3(F)F)cc1: Unstable
CCN(CC)Cc1ccc(C2=C(Br)C(c3ccc(OC)cc3)=[N+]3C2=Nc2c(-c4ccc(CN(CC)CC)cc4)c(Br)c(-c4ccc(OC)cc4)n2[B-]3(F)F)cc1: Unstable
CCN(CC)Cc1ccc(C2=C(I)C(c3ccc(OC)cc3)=[N+]3C2=Nc2c(-c4ccccc4)c4c(n2[B-]3(F)F)-c2ccc(OC)cc2CC4)cc1: Stable
CCN(CC)Cc1ccc(C2=C(I)C(c3ccc(OC)cc3)=[N+]3C2=Nc2c(-c4ccc(CN(CC)CC)cc4)cc(-c4ccc(OC)cc4)n2[B-]3(F)F)cc1: Stable

Consider now this further compound.
[in] So what does the record say about Stability for `CCN(CC)Cc1ccc(C2=C(I)C(c3ccc(OC)cc3)=[N+]3C2=Nc2c(-c4ccc(CN(CC)CC)cc4)c(I)c(-c4ccc(OC)cc4)n2[B-]3(F)F)cc1` ?
[out] Unstable
